Experiment: Plasma stability
Type: in vitro ADME
Conditions: human plasma, 2 h, 37 °C, read-out: Plasma Stability %Remaining @ 10 μM after 2 h
quantity measured: remaining at 2 h, 10 μM (%)
Write down the numeric answer in % and omit the unit.

Task: Return value of remaining at 2 h, 10 μM for input C[C@@H](Oc1nc(N2CCCNCC2)ncc1F)c1cccc(F)c1 [10a] , no commentary.
Output: 98

----------
Biological target: 5-HT1A receptor (Homo sapiens)
Construct: expressed in transfected cells; host or cells: HEK293 or CHO
Sequence (P08908 whole entry): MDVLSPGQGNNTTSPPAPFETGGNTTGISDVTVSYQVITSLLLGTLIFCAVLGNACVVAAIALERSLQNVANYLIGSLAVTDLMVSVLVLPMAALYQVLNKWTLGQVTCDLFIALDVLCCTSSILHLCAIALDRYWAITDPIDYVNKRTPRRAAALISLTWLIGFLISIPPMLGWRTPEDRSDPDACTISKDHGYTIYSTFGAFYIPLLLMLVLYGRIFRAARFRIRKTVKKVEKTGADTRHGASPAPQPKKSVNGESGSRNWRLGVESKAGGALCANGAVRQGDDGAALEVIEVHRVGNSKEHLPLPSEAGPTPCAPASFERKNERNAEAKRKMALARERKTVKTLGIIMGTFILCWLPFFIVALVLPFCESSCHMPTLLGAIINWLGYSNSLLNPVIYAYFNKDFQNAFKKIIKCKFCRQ
Experiment: 5-HT receptor radioligand binding affinity assay, 1A
quantity measured: Ki

Task: Report its Ki with 5-HT1A receptor (Homo sapiens) as the test system: C[C@@H](Oc1nc(N2CCCNCC2)ncc1F)c1ccc(F)cc1 [10f]
Output: 1070 nM

Task: # return Ki for C[C@@H](Oc1nc(N2CCCNCC2)ncc1F)c1cccc(F)c1 [10a] , test system: 5-HT1A receptor (Homo sapiens)
Output: 578 nM

Task: Enter recorded Ki with 5-HT1A receptor (Homo sapiens) for C[C@@H]1CNCCN1c1ncc(F)c(O[C@H](C)c2ccc(F)cc2)n1 [compound 8, reference compound] here.
Output: 271 nM
